Tested on: IPOHE (Morningglory, Ivyleaf)
Experiment: Postemergence herbicidal evaluation
Format: in vivo, Ipomoea hederacea
Conditions: Rate 0.0315 kg/ha
Measured Postemergence herbicidal rating IPOHE of individual entries

{"columns": ["Compound", "Tested System", "Postemergence herbicidal rating IPOHE"],
 "data": [
  ["Cn1c(C(F)(F)F)cc(=O)n(-c2cc(N=C3SCC(=O)N3CCC(=O)O)c(Cl)cc2F)c1=O [Compound 31]", "IPOHE (Morningglory, Ivyleaf)", 9.0],
  ["CCOP(=O)(CN1C(=O)CSC1=Nc1cc(-n2c(=O)cc(C(F)(F)F)n(C)c2=O)c(F)cc1Cl)OCC [Compound 35]", "IPOHE (Morningglory, Ivyleaf)", 9.0],
  ["Cn1c(C(F)(F)F)cc(=O)n(-c2cc(N=C3SCC(=O)N3CCC(=O)O)c(Cl)cc2F)c1=O [Compound 30]", "IPOHE (Morningglory, Ivyleaf)", 0.0],
  ["CCOC(=O)CN1C(=O)C(CC(=O)OCc2ccccc2)OC1=Nc1cc(-n2c(=O)cc(C(F)(F)F)n(C)c2=O)c(F)cc1Cl (stereo not drawn) [Compound 40]", "IPOHE (Morningglory, Ivyleaf)", 9.0],
  ["Cn1c(C(F)(F)F)cc(=O)n(-c2cc(N=C3SCC(=O)N3[C@@H](Cc3ccccc3)C(=O)O)c(Cl)cc2F)c1=O [Compound 53]", "IPOHE (Morningglory, Ivyleaf)", 9.0],
  ["CCOC(=O)CN1C(=O)C(CC(=O)NC)SC1=Nc1cc(-n2c(=O)cc(C(F)(F)F)n(C)c2=O)c(F)cc1Cl (stereo not drawn) [Compound 57]", "IPOHE (Morningglory, Ivyleaf)", 9.0]
]}

###

Tested on: SAGPY (Arrowhead (Pygmaea))
Experiment: Postemergence weed control under flooded paddy conditions
Type: in vivo, Sagittaria pygmaea
Conditions: Rate 0.0625 kg/ha, postemergence weeds, rated 3 to 4 weeks after treatment
Listed below: Herbicidal rating SAGPY values for each entry.
Measurement Type: Herbicidal rating SAGPY

{"columns": ["Compound", "Tested System", "Value"],
 "data": [
  ["CCOC(=O)[C@H](C)N1C(=O)CSC1=Nc1cc(-n2c(=O)cc(C(F)(F)F)n(C)c2=O)c(F)cc1Cl [Compound 76]", "SAGPY (Arrowhead (Pygmaea))", 0.0],
  ["CCOC(=O)CN1C(=O)C(CC(=O)NS(=O)(=O)c2ccccc2)SC1=Nc1cc(-n2c(=O)cc(C(F)(F)F)n(C)c2=O)c(F)cc1Cl (centres unmarked) [Compound 100]", "SAGPY (Arrowhead (Pygmaea))", 0.0],
  ["CCOC(=O)CN1C(=O)C(CC(=O)OC(C)C(=O)OCC)S/C1=N/c1cc(-n2c(=O)cc(C(F)(F)F)n(C)c2=O)c(F)cc1Cl (centres unmarked) [Compound 87]", "SAGPY (Arrowhead (Pygmaea))", 4.0],
  ["C#CCOC(=O)CC1SC(=Nc2cc(-n3c(=O)cc(C(F)(F)F)n(C)c3=O)c(F)cc2Cl)N(CC(=O)OCC)C1=O (centres unmarked) [Compound 59]", "SAGPY (Arrowhead (Pygmaea))", 0.0],
  ["CCOC(=O)CN1C(=O)C(CC(=O)OC(C)C)SC1=Nc1cc(-n2c(=O)cc(C(F)(F)F)n(C)c2=O)c(F)cc1Cl (centres unmarked) [Compound 60]", "SAGPY (Arrowhead (Pygmaea))", 4.0]
]}

// provenance: patent US20020137929A1
